- Tested on: MDA-MB-435
// values below are reported GI50
QUANTITY KIND: GI50

>>> print(df.to_string())
                                   compound  quantity_kind    result
0  C=C(C)[C@@H]1CC[C@]2(C(N)=O)CC[C@]3(C)[C@H](CC[C@@H]4[C@@]5(C)C/C(=C/c6cccnc6)[C@H](O)C(C)(C)[C@@H]5CC[C@]43C)[C@@H]12           GI50   3.77 µM
1       CC(=O)[O][Bi]([c]1ccccc1)[c]1ccccc1           GI50   7.26 µM
2  COc1cc(N2CCC(N3CCN(C)CC3)CC2)ccc1Nc1ncc(Cl)c(Nc2ccccc2S(=O)(=O)C(C)C)n1           GI50  0.387 µM
3  COc1cc2c3c(n(CCCN4CCCC(O)C4)c(=O)c2cc1OC)-c1cc2c(cc1C3=O)OCO2 (stereo not given)           GI50  0.836 µM
4  COc1ccc2nc(-c3cc4c([nH]c5ccccc54)c(-c4ccc(F)c(F)c4)n3)[nH]c2c1           GI50   3.69 µM
5  O=[N+]([O-])c1cc2c(c([N+](=O)[O-])c1)Nc1ccccc1O2           GI50      8 µM
6  COC1=C(OC)[C@]2(OC)c3c(O)c(OC)c4c(c3O[C@@]23O[C@@H](c2ccccc2)CC=C3C1=O)[C@@H](O)C[C@H](c1ccccc1)O4           GI50   0.27 µM
7  Cc1nn(C)c2cc(N(C)c3ccnc(Nc4cccc(S(N)(=O)=O)c4)n3)ccc12           GI50   6.12 µM
8  O=S(=O)(Nc1ccccn1)c1ccc(N=Nc2ccc(O)c3ncccc23)cc1           GI50  0.638 µM
9  COc1cc(/C=C2\C[C@H]3[C@@H]4CC=C5C[C@@H](OC(C)=O)CC[C@]5(C)[C@H]4CC[C@]3(C)[C@H]2OC(C)=O)ccc1OCCN1CCCCC1           GI50   14.4 µM

These entries and their values trace back to PubChem BioAssay (NCI).
